# measurement target: Adenosine receptor A1 (Cavia porcellus, UniProt P47745)
# Sequence (P47745 whole entry): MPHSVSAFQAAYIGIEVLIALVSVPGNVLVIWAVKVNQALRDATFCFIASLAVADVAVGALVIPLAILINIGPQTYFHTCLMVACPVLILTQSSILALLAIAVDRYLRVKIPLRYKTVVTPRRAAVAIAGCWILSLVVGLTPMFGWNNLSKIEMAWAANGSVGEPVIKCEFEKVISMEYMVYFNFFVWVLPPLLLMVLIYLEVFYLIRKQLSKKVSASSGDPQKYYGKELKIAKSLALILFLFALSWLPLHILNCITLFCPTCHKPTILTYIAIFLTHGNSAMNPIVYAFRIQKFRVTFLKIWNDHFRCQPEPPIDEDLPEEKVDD
# experiment notes: Tested for adenosine A1 receptor agonistic activity by determining concentration needed to prolong the stimulus-QRS interval by 50% of the maximum response
Classify: true when EC50 is strictly less than 20 µM; false when EC50 is not.

compound | category label
Nc1nc(N/N=C/Cc2ccccc2)nc2c1ncn2C1O[C@H](CO)[C@@H](O)[C@H]1O (stereo partly drawn) | false
C/C(=N\Nc1nc(N)c2ncn(C3O[C@H](CO)[C@@H](O)[C@H]3O)c2n1)c1ccccc1 (stereo partly drawn) | true
Nc1nc(N/N=C/c2ccccc2)nc2c1ncn2C1O[C@H](CO)[C@@H](O)[C@H]1O (stereo partly drawn) | false

API: query returns whether the compound falls strictly under 20 µM in EC50. Query: C/C(=N\Nc1nc(N)c2ncn(C3O[C@H](CO)[C@@H](O)[C@H]3O)c2n1)c1cccs1 (stereo partly drawn)
true

API: query returns whether the compound falls strictly under 20 µM in EC50. Query: Nc1nc(N/N=C/c2cccc(Cl)c2)nc2c1ncn2C1O[C@H](CO)[C@@H](O)[C@H]1O (stereo partly drawn)
false

API: query returns whether the compound falls strictly under 20 µM in EC50. Query: Nc1nc(N/N=C/c2cccs2)nc2c1ncn2C1O[C@H](CO)[C@@H](O)[C@H]1O (stereo partly drawn)
false

API: query returns whether the compound falls strictly under 20 µM in EC50. Query: Nc1nc(N/N=C/c2ccc3ccccc3c2)nc2c1ncn2C1O[C@H](CO)[C@@H](O)[C@H]1O (stereo partly drawn)
true

API: query returns whether the compound falls strictly under 20 µM in EC50. Query: Nc1nc(N/N=C/c2ccccc2F)nc2c1ncn2C1O[C@H](CO)[C@@H](O)[C@H]1O (stereo partly drawn)
false
